Target: T1, GST-human NOGO-A56 (human, UniProt Q9NQC3 586-785)
T1 construct: GST-tagged fusion expressed in E. coli BL21 from pGEX-6P1; also called hNOGO; human NOGO 5+6 GST; not shown: Glutathione S-transferase tag encoded by vector pGEX-6P1 (N-terminal, with vector linker)
T1 sequence: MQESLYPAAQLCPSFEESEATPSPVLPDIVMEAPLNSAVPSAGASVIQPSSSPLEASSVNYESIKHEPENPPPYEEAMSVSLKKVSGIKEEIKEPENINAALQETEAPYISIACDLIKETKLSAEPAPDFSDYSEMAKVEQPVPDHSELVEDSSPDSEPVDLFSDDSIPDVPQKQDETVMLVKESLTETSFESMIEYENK
Experiment: SPR (Biacore), GST-human NOGO-A56 immobilised, purified antibody as analyte; single experiment
attribute.measured: kon (M⁻¹ s⁻¹)
Field format: number, assumed M⁻¹ s⁻¹, no unit text.

binder	readout.number
H1L11 (antibody, human IgG1, kappa, V domains shown) VH: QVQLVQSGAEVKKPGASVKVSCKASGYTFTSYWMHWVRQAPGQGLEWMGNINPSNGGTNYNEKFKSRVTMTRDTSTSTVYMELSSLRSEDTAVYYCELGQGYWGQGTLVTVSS VL: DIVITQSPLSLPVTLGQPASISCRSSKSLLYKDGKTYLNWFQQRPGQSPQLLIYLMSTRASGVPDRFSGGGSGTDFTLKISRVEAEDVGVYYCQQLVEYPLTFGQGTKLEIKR	1.19e+06
H6L13 (antibody, human IgG1, kappa, V domains shown) VH: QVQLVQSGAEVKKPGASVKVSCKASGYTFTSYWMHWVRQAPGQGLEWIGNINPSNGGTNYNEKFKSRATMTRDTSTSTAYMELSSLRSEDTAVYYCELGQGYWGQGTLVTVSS VL: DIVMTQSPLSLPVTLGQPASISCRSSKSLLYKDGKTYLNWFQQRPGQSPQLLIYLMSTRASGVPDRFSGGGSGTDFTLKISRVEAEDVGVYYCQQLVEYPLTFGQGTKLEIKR	1.91e+06

Next, consider the following binder.
[ask] Specify measured kon for H22L16 (antibody, human IgG1, kappa, V domains shown, human gamma1 mutated constant region, human kappa) VH: QVQLVQSGAEVKKPGASVKVSCKASGYTFTSYWMHWVKQRPGQGLEWIGNINPSNGGTNYNEKFKSKATMTRDTSTSTAYMELSSLRSEDTAVYYCELGQGYWGQGTLVTVSS VL: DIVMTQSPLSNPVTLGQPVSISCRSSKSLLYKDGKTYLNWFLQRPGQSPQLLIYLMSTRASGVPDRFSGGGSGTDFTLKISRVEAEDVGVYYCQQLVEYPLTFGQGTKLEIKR .
[reply] 5.69e+06
